# protocol: oral acute toxicity in male mice
# reported.conditions: mouse, in vivo
reported.endpoint: LD50

I am curious: what LD50 value has been reported for COc1cc2c(cc1OC)[C@@H](O)[C@@H](N1CCC(NC(=O)c3ccccc3)CC1)C2 (relative stereo) [MG 38112] ?
> 1000 mg/kg

I am curious: what LD50 value has been reported for COc1cc2c(c(OC)c1OC)C[C@H](N1CCC(NC(=O)c3ccccc3)CC1)[C@@H]2O (relative stereo) [MG 38107] ?
> 1000 mg/kg

I am curious: what LD50 value has been reported for CCCCCCCCN[C@@H]1Cc2c(cc(OC)c(OC)c2OC)[C@H]1O (relative stereo) [MG 38006] ?
> 1000 mg/kg

I am curious: what LD50 value has been reported for COc1cc2c(cc1OC)[C@@H](O)[C@@H](N1CCN(c3ccccc3OC)CC1)C2 (relative stereo) [MG 38100] ?
> 500 mg/kg

I am curious: what LD50 value has been reported for COc1cc2c(cc1OC)[C@@H](O)[C@H](N1CCN(C(=O)C=Cc3ccccc3)CC1)C2 (relative stereo) [MG 28414] ?
> 2000 mg/kg

I am curious: what LD50 value has been reported for COc1cc2c(c(OC)c1OC)CC(N1CCC(n3c(=O)[nH]c4ccccc43)CC1)C2=O (stereo not shown) [MG 38005] ?
> 2000 mg/kg

I am curious: what LD50 value has been reported for CCCCCCCCN[C@H]1Cc2cc(OC)c(OC)cc2[C@@H]1O (relative stereo) [MG 28400] ?
> 500 mg/kg

----------
What Liver weight, % difference from control was measured for each of the following?
# System: Normolipemic rats
# protocol: hypolipemic activity in normolipemic rats (serum lipids, liver weight)
# Format: in vivo, rat
# reported.conditions: 0.370 mM/kg po × 4 days

I am curious: what Liver weight, % difference from control value has been reported for COc1cc2c(cc1OC)[C@@H](O)[C@@H](N1CCC(NC(=O)c3ccccc3)CC1)C2 (relative stereo) ?
+3.9%

I am curious: what Liver weight, % difference from control value has been reported for COc1cc2c(cc1OC)[C@H](O)[C@@H](N1CCC(n3c(=O)[nH]c4cc(Cl)ccc43)CC1)C2 (relative stereo) ?
+6.9%

I am curious: what Liver weight, % difference from control value has been reported for COc1cc2c(cc1OC)C(=O)C(N1CCC(NC(=O)c3ccccc3)CC1)C2 (stereo not shown) ?
+8.6%

I am curious: what Liver weight, % difference from control value has been reported for COc1cc2c(c(OC)c1OC)C[C@H](N1CCC(NC(=O)c3ccccc3)CC1)[C@@H]2O (relative stereo) ?
0%
